# measurement_notes: qHTS assay to identify aromatase inhibitors - cell viability counter screen (AID 743084);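 further: cells stimulated with testosterone during compound exposure; nearly all actives have a fitted effect of over 55% in size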
# applied_conditions: MCF-7 aro ERE viability, CellTiter-Fluor, 24 h; series mostly up to 70.3 µM
Records with an inconclusive call do not appear. Active and inactive are the calls of the source. The call rests on the fitted dose curve; in most records, active means well fitted cell-killing curve with a large enough effect in the repeat runs; inconclusive means weak or mixed curves, or effect the other way; inactive means no such curve, though single readings can be large or run the other way.
Field 'call' accepts active, inactive

CC(=O)O[C@H]1C[C@@H]2CC[C@@H]3[C@H](CC[C@@]4(C)[C@H]3C[C@H]([N+]3(C)CCCCC3)[C@@H]4OC(C)=O)[C@@]2(C)C[C@@H]1N1CCCCC1
inactive
CCCOc1ccc2nc(NC(=O)OC)[nH]c2c1
inactive

We next turn to a different compound, shown below.
// query Give the logged outcome of this assay for the following compound: O=C(CCN1CCN2CCCC2C1)N1c2ccccc2Sc2ccc(Cl)cc21 (configuration not stated)
// result inactive

====

# measurement_notes: qHTS assay to identify small molecule agonists of the farnesoid-X-receptor (FXR) signaling pathway - cell viability counter screen (AID 743218); further: nearly all actives have a fitted effect of over 45% in size; further: potency means the concentration at half of the fitted maximal effect
# applied_conditions: FXR-bla HEK293T viability, CellTiter-Glo luminescence, 16 h; series mostly up to 62.6 µM
Inconclusive results are not listed. Active and inactive are the calls of the source. The call rests on the fitted dose curve; in most records, active means well fitted cell-killing curve with a large enough effect in the repeat runs; inconclusive means weak or mixed curves, or effect the other way; inactive means no such curve, though single readings can be large or run the other way.
quantity_kind: Potency

See these solved cases before continuing.
OC(CCN1CCCCC1)(c1ccccc1)C1CCCCC1 (centres undefined)
inactive
C=CCCCCCC
inactive
C=C(C)C(=O)OCCOc1ccccc1
inactive
CN1CCC[C@@H]1c1cccnc1
inactive
Nc1nc(N)c(-c2ccccc2)s1
inactive

// query # lookup: Potency of "CC(C)(C)c1cc(CO)cc(C(C)(C)C)c1O"
// result inactive

// query # lookup: Potency of "COc1ccccc1OC(=O)Oc1ccccc1OC"
// result inactive

// query # lookup: Potency of "FC(F)(F)C(F)(F)C(F)(F)C(F)(F)C(F)(F)C(F)(F)CCI"
// result inactive

// query # lookup: Potency of "CN(c1nccc(=O)[nH]1)C1CCN(c2nc3ccccc3n2Cc2ccc(F)cc2)CC1"
// result inactive

// query # lookup: Potency of "O=C(O)COC(=O)Cc1ccccc1Nc1c(Cl)cccc1Cl"
// result inactive

// query # lookup: Potency of CC(Cc1cccc(C(F)(F)F)c1)NCCOC(=O)c1ccccc1 (centres undefined)
// result 21.1 µM (active)

// query # lookup: Potency of "CC(=O)OCCc1ccccc1"
// result inactive

// query # lookup: Potency of "Cc1ncsc1CCO"
// result inactive

// query # lookup: Potency of CCCCOC(O)CC (centres undefined)
// result inactive

====

# measurement_notes: A CellTox Green Cytotoxicity Assay to monitor cytotoxicity in HEK293 cells - 32 hour (AID 1224881); further: nearly all actives have a fitted effect of over 40% in size
# applied_conditions: CellTox Green fluorescence; series mostly up to 76.8 µM
Results filed as inconclusive are left out. Calls of active or inactive are those of the source. Calls come from the whole dose curve; as a rule, active = well fitted activation curve with a large enough effect in the repeat runs; inconclusive = weak or mixed curves; inactive = flat fitted curve, though single readings scatter.
Field 'call' accepts y (active), n (inactive)

Known results for molecules:
CCN(CC)CCNC(C(=O)OCCC(C)C)c1ccccc1 (stereo not drawn)
n
c1ccc(-c2nc[nH]c2-c2ccccc2)cc1
n
O=S1(=O)N=C(O)c2ccccc21
n
CC(=O)N(CC(=O)N(C)C)c1ccccc1
n
Cc1c(Cn2ccnc2)c2ccccc2n1CCC(=O)O
n

We next turn to a different molecule, shown below.
// query Give the logged outcome of this assay for the following molecule: "Oc1ccc(O)c2c(O)cccc12"
// result n

====

# system_name: Cytochrome P450 1A2 (Homo sapiens) (UniProt P05177)
# Sequence (P05177 whole entry, looked up): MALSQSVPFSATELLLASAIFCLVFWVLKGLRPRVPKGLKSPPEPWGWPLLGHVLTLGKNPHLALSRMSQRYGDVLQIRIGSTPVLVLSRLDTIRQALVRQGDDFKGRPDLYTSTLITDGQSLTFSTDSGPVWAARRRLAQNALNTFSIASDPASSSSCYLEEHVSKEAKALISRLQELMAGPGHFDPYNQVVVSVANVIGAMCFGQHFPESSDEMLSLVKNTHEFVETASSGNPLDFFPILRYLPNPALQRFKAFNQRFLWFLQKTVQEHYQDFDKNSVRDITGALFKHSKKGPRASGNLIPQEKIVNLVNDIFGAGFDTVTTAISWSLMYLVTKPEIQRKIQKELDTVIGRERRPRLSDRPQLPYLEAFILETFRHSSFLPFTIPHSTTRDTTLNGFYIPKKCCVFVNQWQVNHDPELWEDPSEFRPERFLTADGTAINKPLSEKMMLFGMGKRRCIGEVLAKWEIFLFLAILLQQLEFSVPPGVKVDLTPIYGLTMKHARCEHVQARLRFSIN
# measurement_notes: Cytochrome P450 Family 1 Subfamily A Member 2 (CYP1A2) small molecule antagonists: luciferase reporter qHTS assay (AID 1671199); further: nearly all actives have a fitted effect of over 50% in size; further: potency means the concentration at half of the fitted maximal effect
# applied_conditions: P450-Glo CYP1A2 enzyme, luciferin luminescence, 1 h; series mostly up to 115 µM
Inconclusive results are not listed. Active and inactive are the calls of the source. Calls come from the whole dose curve; as a rule, active = well fitted inhibition curve with a large enough effect in the repeat runs; inconclusive = weak or mixed curves; inactive = no such curve, though single readings can be large or run the other way.
quantity_kind: Potency

C=Cc1c(C)c2cc3[nH]c(cc4nc(cc5nc(cc1[nH]2)C(C)=C5CCC(=O)O)C(CCC(=O)O)=C4C)c(C)c3C=C
inactive
CCCCCCCCN(C)C
inactive
CCCCC(CC)COCCCN (stereo not given)
11.1 µM (active)
CCCOc1ccc2nc(NC(=O)OC)[nH]c2c1
inactive
Cc1ccccc1N=Nc1ccc(N=Nc2c(O)ccc3ccccc23)c(C)c1
13.8 µM (active)
O=C1c2cccc(O)c2C(=O)c2c(O)cc(CO)cc21
8.94 µM (active)
C#CCOC(=O)[C@@H](C)Oc1ccc(Oc2ncc(Cl)cc2F)cc1
5 µM (active)
CCN(CC)CCNC(C(=O)OCCC(C)C)c1ccccc1 (stereo not given)
inactive
NCc1ccccc1
31.7 µM (active)
N#Cc1cc2ccccc2c2ccccc12
0.0636 µM (active)

// query # lookup: Potency of "COc1ccccc1OC(=O)Oc1ccccc1OC"
// result 4.56 µM (active)

// query # lookup: Potency of "CC(C)(C)c1cc(CCC(=O)OCC(COC(=O)CCc2cc(C(C)(C)C)c(O)c(C(C)(C)C)c2)(COC(=O)CCc2cc(C(C)(C)C)c(O)c(C(C)(C)C)c2)COC(=O)CCc2cc(C(C)(C)C)c(O)c(C(C)(C)C)c2)cc(C(C)(C)C)c1O"
// result 6.75 µM (active)

// query # lookup: Potency of "CN1CCN(C2=Nc3ccccc3Sc3ccc(Cl)cc32)CC1"
// result inactive

// query # lookup: Potency of "CN1CCC(=C2c3ccccc3CCc3sccc32)CC1"
// result inactive

// query # lookup: Potency of "CCOC(=O)[C@H](CCc1ccccc1)N[C@H]1CCc2ccccc2N(CC(=O)O)C1=O"
// result 12.9 µM (active)

// query # lookup: Potency of "CC(=O)OC/C=C/c1ccccc1"
// result 31.7 µM (active)

// query # lookup: Potency of "CCCC(=O)OCC"
// result inactive

// query # lookup: Potency of C=CC(C)(CCC=C(C)C)OC(=O)c1ccccc1 (stereo not given)
// result 39.9 µM (active)

====

# system_name: Cytochrome P450 1A2 (Homo sapiens) (UniProt P05177)
# measurement_notes: Cytochrome P450 Family 1 Subfamily A Member 2 (CYP1A2) small molecule antagonists: luciferase reporter qHTS assay (AID 1671199); further: nearly all actives have a fitted effect of over 50% in size; further: potency means the concentration at half of the fitted maximal effect
# applied_conditions: P450-Glo CYP1A2 enzyme, luciferin luminescence, 1 h; series mostly up to 115 µM
Inconclusive results are not listed. Active and inactive are the calls of the source. Calls come from the whole dose curve; as a rule, active = well fitted inhibition curve with a large enough effect in the repeat runs; inconclusive = weak or mixed curves; inactive = no such curve, though single readings can be large or run the other way.
quantity_kind: Potency

See these solved cases before continuing.
C=C(C)C(=O)OCCN(C)C
inactive
O=C(Cl)c1c(Cl)cccc1Cl
inactive
CCc1nn(C2CCCCC2)c2cc(C3(C#N)CCC(C(=O)O)CC3)ccc12 (configuration not stated)
inactive
SC1CCCC1
inactive
O=C(Cl)c1ccc([N+](=O)[O-])cc1
55.4 µM (active)

// query # lookup: Potency of "C[Si](C)O[Si](C)(C)O[Si](C)(C)O[Si](C)C"
// result inactive

// query # lookup: Potency of "Cc1cccc(OCCOc2cccc(C)c2)c1"
// result 8.45 µM (active)

====

# measurement_notes: A CellTox Green Cytotoxicity Assay to monitor cytotoxicity in HepG2 cells - 24 hour (AID 1224878); further: nearly all actives have a fitted effect of over 45% in size
# applied_conditions: CellTox Green fluorescence; series mostly up to 76.8 µM
Records with an inconclusive call do not appear. The source made the active and inactive calls. The call rests on the fitted dose curve; in most records, active means well fitted activation curve with a large enough effect in the repeat runs; inconclusive means weak or mixed curves; inactive means flat fitted curve, though single readings scatter.
Field 'call' accepts 1 (yes) = active, 0 (no) = inactive

Known results for molecules:
CCCCCCCCCCCCC(=O)O
0 (no)
CCCCCCCC/C=C\CCCCCCCC(N)=O
1 (yes)
C1CCC2OC2C1 (configuration not stated)
0 (no)
COc1ccccc1OC(=O)Oc1ccccc1OC
0 (no)
C#CCOC(=O)[C@@H](C)Oc1ccc(Oc2ncc(Cl)cc2F)cc1
0 (no)
CC(C)(C)c1ccc(S)cc1
0 (no)
CC(=O)N(O)CCCCCNC(=O)CCC(=O)N(O)CCCCCNC(=O)CCC(=O)N(O)CCCCCN
0 (no)
CC(C)NCC(O)COc1ccc(CC(N)=O)cc1 (configuration not stated)
0 (no)

// query Give the logged outcome of this assay for the following molecule: "CN1CCC(=C2c3ccccc3CCc3sccc32)CC1"
// result 1 (yes)

====

# system_name: Thyrotropin receptor (Homo sapiens) (UniProt P16473)
# Sequence (P16473 whole entry, looked up): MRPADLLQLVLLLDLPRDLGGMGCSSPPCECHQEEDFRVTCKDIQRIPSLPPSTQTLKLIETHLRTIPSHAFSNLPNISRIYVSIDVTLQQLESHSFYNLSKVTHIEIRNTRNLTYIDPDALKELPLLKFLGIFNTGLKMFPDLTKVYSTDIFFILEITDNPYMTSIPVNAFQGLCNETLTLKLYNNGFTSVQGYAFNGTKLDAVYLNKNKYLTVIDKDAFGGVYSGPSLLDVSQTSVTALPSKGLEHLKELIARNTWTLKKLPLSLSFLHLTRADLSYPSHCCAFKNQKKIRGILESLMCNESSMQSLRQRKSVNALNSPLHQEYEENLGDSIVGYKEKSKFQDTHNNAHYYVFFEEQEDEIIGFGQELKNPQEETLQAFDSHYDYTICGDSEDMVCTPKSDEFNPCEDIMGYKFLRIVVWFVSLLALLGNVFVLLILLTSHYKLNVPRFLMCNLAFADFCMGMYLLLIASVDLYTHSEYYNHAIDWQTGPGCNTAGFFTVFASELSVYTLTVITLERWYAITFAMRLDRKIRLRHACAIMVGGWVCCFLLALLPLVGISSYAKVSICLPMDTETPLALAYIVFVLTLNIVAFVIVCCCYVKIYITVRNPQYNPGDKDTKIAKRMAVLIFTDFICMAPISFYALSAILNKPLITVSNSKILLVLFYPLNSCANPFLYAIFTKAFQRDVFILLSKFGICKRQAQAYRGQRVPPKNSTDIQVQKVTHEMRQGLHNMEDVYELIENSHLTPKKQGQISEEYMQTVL
# measurement_notes: qHTS assay to identify small molecule antagonists of the thyroid stimulating hormone receptor (TSHR) signaling pathway (AID 1259385); further: nearly all actives have a fitted effect of over 20% in size
# applied_conditions: TSHR-HEK293 cAMP HTRF, TSH-stimulated antagonist mode; series mostly up to 92.4 µM
Results filed as inconclusive are left out. The source made the active and inactive calls. The call rests on the fitted dose curve.
Field 'call' accepts yes (1) for active, no (0) for inactive

// query Give the logged outcome of this assay for the following molecule: "CN(C)CC/C=C1\c2ccccc2COc2ccccc21"
// result yes (1)

// query Give the logged outcome of this assay for the following molecule: "O=C1CCCCCO1"
// result no (0)

// query Give the logged outcome of this assay for the following molecule: "c1ccc(OCc2ccc(CCCN3CCOCC3)cc2)cc1"
// result no (0)

====

# measurement_notes: qHTS assay to identify small molecule antagonists of the estrogen related receptor signaling pathway with the pleiotropic PPARgamma coactivator (PGC) from Tox21 10K library - cell viability counter screen (AID 1224840); further: nearly all actives have a fitted effect of over 40% in size
# applied_conditions: PGC/ERR reporter cells viability, CellTiter-Fluor, 17.5 h; series mostly up to 92.4 µM
Inconclusive results are not listed. Active and inactive are the calls of the source. The call rests on the fitted dose curve; in most records, active means well fitted cell-killing curve with a large enough effect in the repeat runs (not every such curve was filed as active); inconclusive means weak or mixed curves, or effect the other way; inactive means no such curve, though single readings can be large or run the other way.
quantity_kind: viability change, negative = cytotoxic

See these solved cases before continuing.
CCOc1ccc2[nH]cc(C(=O)NCc3ccccc3)c(=O)c2n1
inactive
N#Cc1c(F)cccc1F
inactive
C=C(C)C(=O)OCCN(C)C
inactive
Cc1ccc(C)o1
inactive
CCCCCc1ccc(N)cc1
inactive

Now consider a different compound.
// query # lookup: viability change, negative = cytotoxic of N[C@H]1C(O)O[C@H](CO)[C@H](O)[C@@H]1O (some centres undefined)
// result inactive
